Listed below: EC50 viability values for each entry.
- Tested on: DLD1 NRF2-WT
- experimentalConditions: 72 h; CellTiter-Glo viability
Reply with just the number (in nM).

Here's what some known entries look like.
[
  {
    "smiles": "CC(=O)Nc1cccc(-n2c(=O)n(C3CC3)c(=O)c3c(Nc4ccc(I)cc4F)n(C)c(=O)c(C)c32)c1",
    "endpoint": "EC50 viability",
    "resultNumber": 37
  },
  {
    "smiles": "CCn1c(C(=O)N(C2CC2)C2CC2)cc2c3c(ncn3C)c(Nc3cc(C)n(C)n3)nc21",
    "endpoint": "EC50 viability",
    "resultNumber": 218
  },
  {
    "smiles": "CCN(CC)CCNC(=O)c1c(C)[nH]c(/C=C2\\C(=O)Nc3ccc(F)cc32)c1C",
    "endpoint": "EC50 viability",
    "resultNumber": 381
  }
]

Record request: EC50 viability value, item Cc1[nH]c2ccccc2c1CCNCc1ccc(/C=C/C(=O)NO)cc1
64.9
